# Test Details: Selectivity index, ratio of CC50 for rat L6 cells to IC50 for Trypanosoma brucei rhodesiense STIB900 trypomastigote
# Assay type: toxicity
# Recorded Conditions: read-out: Ratio CC50/IC50
Rule: selectivity ratio under 2 gives not met, otherwise met.

Given the entry O=[N+]([O-])c1ccc(-c2c[nH]cc2C(c2ccc(Cl)cc2Cl)n2ccnc2)cc1 (stereo not given) , answer whether its selectivity ratio meets or surpasses 2.
met

// query: Fc1ccc(-n2ccc(C(c3ccc(Cl)cc3)n3ccnc3)c2)cc1 (stereo not given)
met

Another compound: Fc1ccc(-n2ccc(C(c3ccccc3)n3ccnc3)c2)cc1 (stereo not given)
met

Let us now turn to Clc1ccc(C(c2c[nH]cc2-c2cccc3ccccc23)n2ccnc2)c(Cl)c1 (stereo not given)
not met

Then Cc1ccc(C(c2ccn(-c3ccc(F)cc3)c2)n2ccnc2)cc1 (stereo not given) ?
met

Consider next the compound N#Cc1ccc(-c2c[nH]cc2C(c2ccc(Cl)cc2Cl)n2ccnc2)cc1 (stereo not given) in the same way.
not met
